Values were extracted from PubChem BioAssay (NCATS).

# System: ECU
# measurement-protocol: qHTS profiling for inhibitors of Plasmodium falciparum proliferation (AID 504749); also: nearly all actives have a fitted effect of over 60% in size
# test-parameters: P. falciparum in erythrocytes, SYBR Green DNA, 72 h; series mostly up to 28.7 µM
Records with an inconclusive call do not appear. The source made the active and inactive calls. Calls follow the shape of the dose curve; as a rule, active = well fitted inhibition curve with a large enough effect; inconclusive = small, poorly fitted or top-dose-only effect; inactive = flat fitted curve, though single readings scatter.
Tick one outcome: 1 = active, -1 = inactive

Completed entries (count: 4):
O=C(NCCc1c[nH]c2ccccc12)c1cccnc1 = -1
O=C1C(=O)c2ccccc2C(O)=C1C1CCC(c2ccc(Cl)cc2)CC1 (stereo not given) = 1
CCCCc1cc2ccccc2c(OCCN(C)C)n1 = -1
Cc1cc(NS(=O)(=O)c2ccc(N)cc2)nc(C)n1 = -1

## Task Call for entry CN(CCCN1c2ccccc2CCc2ccccc21)CC(=O)c1ccc(Cl)cc1 :
## Result 1
